Here we gather Ki data for Tissue-type plasminogen activator (Homo sapiens) reported by several publications.
# do not omit the unit; it follows the number

Sample answers from the record:
Briefly, Ki measured for N=C(N)c1ccc(CNC(=O)[C@H](CCC2CCNCC2)NC(=O)[C@@H](CCCc2ccccc2)NS(=O)(=O)Cc2ccccc2)cc1 : 1.7 µM

Briefly, Ki measured for COc1ccc(S(=O)(=O)NC(CC(N)=O)C(=O)N2CCCC2C(=O)NCc2ccc(C(=N)N)cc2)cc1 (stereo not drawn) : 47 µM

Briefly, Ki measured for CC1CCN(C(=O)C(Cc2cccc(C(=N)N)c2)NC(=O)CNS(=O)(=O)c2ccc3ccccc3c2)CC1 (racemic) : 340 µM

Continuing:
Briefly, Ki measured for CCC(=O)N1CCC(CC[C@@H](NS(=O)(=O)Cc2ccccc2)C(=O)N[C@@H](CCC2CCNCC2)C(=O)NCc2ccc(C(=N)N)cc2)CC1 : 5.1 µM

Briefly, Ki measured for N=C(N)c1ccc(CNC(=O)[C@H](CCC2CCNCC2)NC(=O)[C@@H](CCC2CCN(C(=O)C3CC3)CC2)NS(=O)(=O)Cc2ccccc2)cc1 : 6.1 µM

Briefly, Ki measured for CC(=O)N1CCC(CC[C@@H](NS(=O)(=O)Cc2ccccc2)C(=O)N[C@@H](CCC2CCNCC2)C(=O)NCc2ccc(C(=N)N)cc2)CC1 : 4.8 µM

Briefly, Ki measured for COc1ccc(S(=O)(=O)NCC(=O)N2CCC[C@H]2C(=O)NCc2ccc(C(=N)N)cc2)cc1 : 0.63 µM

Briefly, Ki measured for N=C(N)c1ccc(CNC(=O)[C@H](CCC2CCNCC2)NC(=O)[C@@H](CCCc2ccncc2)NS(=O)(=O)Cc2ccccc2)cc1 : 2.3 µM

Briefly, Ki measured for COC(=O)C1CCCCN1C(=O)C(Cc1cccc(C(=N)N)c1)NS(=O)(=O)c1ccc2ccccc2c1 (racemic) : 220 µM
